Target sequence: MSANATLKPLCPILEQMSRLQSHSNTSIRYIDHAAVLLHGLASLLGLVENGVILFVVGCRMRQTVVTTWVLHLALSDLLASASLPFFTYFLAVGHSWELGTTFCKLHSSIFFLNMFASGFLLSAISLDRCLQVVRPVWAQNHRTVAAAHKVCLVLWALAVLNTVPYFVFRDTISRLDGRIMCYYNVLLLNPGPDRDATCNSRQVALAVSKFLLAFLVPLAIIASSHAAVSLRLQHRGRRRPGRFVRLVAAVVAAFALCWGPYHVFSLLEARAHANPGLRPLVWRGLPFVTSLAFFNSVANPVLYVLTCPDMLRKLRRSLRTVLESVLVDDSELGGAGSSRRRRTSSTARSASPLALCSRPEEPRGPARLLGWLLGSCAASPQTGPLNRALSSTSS
readoutName: Ki

CCCc1nc2cc(N(Cc3c(C)noc3C)S(=O)(=O)c3ccc(F)cc3)ccc2n1CC(=O)O ... < 1000 nM
CCCc1nc2cc(N(Cc3ccccc3)C(=O)c3sccc3C)ccc2n1CC(=O)O ... < 100 nM
CCCc1nc2c(N(CCC(C)C)S(=O)(=O)c3cccc(F)c3)cccc2n1CC(=O)O ... < 1000 nM
CCCc1nc2c(N(Cc3ccccc3)S(=O)(=O)Cc3ccc(F)cc3)cccc2n1CC(=O)O ... < 1000 nM

---

Target protein (sequence): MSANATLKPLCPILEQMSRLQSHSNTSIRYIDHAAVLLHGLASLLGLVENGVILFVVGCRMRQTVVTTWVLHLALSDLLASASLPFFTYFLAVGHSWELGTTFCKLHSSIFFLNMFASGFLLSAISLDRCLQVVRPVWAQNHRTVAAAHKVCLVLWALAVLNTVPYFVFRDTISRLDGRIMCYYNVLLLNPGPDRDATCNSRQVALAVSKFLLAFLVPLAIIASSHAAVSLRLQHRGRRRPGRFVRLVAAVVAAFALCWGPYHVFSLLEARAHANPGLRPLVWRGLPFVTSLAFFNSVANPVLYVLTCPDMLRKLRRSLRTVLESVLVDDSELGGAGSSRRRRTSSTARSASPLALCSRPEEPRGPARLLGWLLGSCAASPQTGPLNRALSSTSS
readoutName: Ki

CCCCc1nc2cc(NS(=O)(=O)c3ccc(F)cc3)ccc2n1CC(=O)O ... < 1000 nM
CCCCC(CC)c1nc2cc(NS(=O)(=O)c3ccc(F)cc3)ccc2n1CC(=O)O (centres unmarked) ... > 10000 nM
CC(C)c1nc2cc(N(Cc3ccccc3)S(=O)(=O)c3ccc(F)cc3)ccc2n1CC(=O)O ... < 1000 nM
CCCc1nc2cc(N(Cc3nc4ccccc4s3)S(=O)(=O)c3ccc(F)cc3)ccc2n1CC(=O)O ... < 100 nM
CCCc1nc2cc(N(Cc3ccccc3)S(=O)(=O)c3ccc(F)cc3)ccc2n1CC(=O)O ... < 100 nM
CCCc1nc2cc(N(CCCc3ccccc3)S(=O)(=O)c3ccc(F)cc3)ccc2n1CC(=O)O ... < 100 nM
CC/C=C/c1nc2cc(NS(=O)(=O)c3ccc(F)cc3)ccc2n1CC(=O)O ... < 10000 nM
CCCc1nc2cc(N(Cc3ccccc3C#N)S(=O)(=O)c3ccc(F)cc3)ccc2n1CC(=O)O ... < 1000 nM

---

Recorded Ki for the following compounds
Target sequence: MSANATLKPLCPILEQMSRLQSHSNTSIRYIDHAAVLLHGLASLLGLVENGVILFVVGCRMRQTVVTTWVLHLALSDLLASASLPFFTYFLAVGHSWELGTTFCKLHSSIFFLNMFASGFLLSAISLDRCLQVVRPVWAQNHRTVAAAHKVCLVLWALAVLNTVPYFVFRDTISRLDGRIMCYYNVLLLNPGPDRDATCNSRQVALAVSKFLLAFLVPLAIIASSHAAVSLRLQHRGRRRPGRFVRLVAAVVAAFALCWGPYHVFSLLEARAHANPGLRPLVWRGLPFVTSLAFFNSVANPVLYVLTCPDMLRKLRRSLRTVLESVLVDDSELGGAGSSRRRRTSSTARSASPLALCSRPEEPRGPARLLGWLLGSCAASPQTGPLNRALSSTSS
readoutName: Ki

CCCc1nc2cc(N(Cc3ccccc3)C(=O)c3cccc(Cl)c3)ccc2n1CC(=O)O ... < 1 µM
CCCc1nc2cc(NC(=O)OC(C)(C)C)ccc2n1CC(=O)O ... < 10 µM
CCCc1nc2cc(N(Cc3ccc(F)cc3)S(=O)(=O)CC)ccc2n1CC(=O)O ... < 1 µM
CCCc1nc2cc(N(Cc3ccccc3)C(=O)c3cccc(F)c3)ccc2n1CC(=O)O ... < 10 µM
CCCc1nc2cc(N(Cc3ccc(F)cc3)S(=O)(=O)c3cccc(F)c3)ccc2n1CC(=O)O ... < 1 µM
CCCC(C)c1nc2cc(NS(=O)(=O)c3ccc(F)cc3)ccc2n1CC(=O)O (centres unmarked) ... < 1 µM
CCCc1nc2cc(N(CCC(C)C)S(=O)(=O)c3ccc(F)cc3)ccc2n1CC(=O)O ... < 0.1 µM
CCCc1nc2cc(N(Cc3cccc(Cl)c3)S(=O)(=O)c3ccc(F)cc3)ccc2n1CC(=O)O ... < 0.1 µM
CCCc1nc2c(N(C(C)C)S(=O)(=O)c3cccc(F)c3)cccc2n1CC(=O)O ... < 10 µM
CCCc1nc2c(N(Cc3ccccc3)S(=O)(=O)c3cccc(F)c3)cccc2n1CC(=O)O ... < 1 µM
CCCc1nc2cc(N(C(C)C)S(=O)(=O)c3ccc(F)cc3)ccc2n1CC(=O)O ... < 0.1 µM
CC(C)=CCCC(C)c1nc2cc(NS(=O)(=O)c3ccc(F)cc3)ccc2n1CC(=O)O (centres unmarked) ... < 10 µM
CC(C)c1nc2cc(NS(=O)(=O)c3ccc(F)cc3)ccc2n1CC(=O)O ... < 1 µM
CCCc1nc2cc(N(Cc3ccc(C#N)cc3)S(=O)(=O)c3ccc(F)cc3)ccc2n1CC(=O)O ... < 0.1 µM
CCc1nc2cc(NS(=O)(=O)c3ccc(F)cc3)ccc2n1CC(=O)O ... < 1 µM
CCCc1nc2cc(N(Cc3ccccc3)C(=O)c3c(F)cccc3F)ccc2n1CC(=O)O ... < 10 µM
CCCc1nc2cc(N3C(=O)c4ccccc4S3(=O)=O)ccc2n1CC(=O)O ... < 10 µM

---

# testedOn: human CRTH2 (Homo sapiens)
# experimentalProtocol: CRTH2 fluorescent imaging assay (intracellular calcium)
# conditionsUsed: antagonism of PGD2-induced calcium increase; HEK 293EBNA-hCRTH2 or HT1080-hCRTH2 cells; read-out: RAGE hCRTH2 IC50
readoutName: IC50 (nM)

CCCc1nc2cc(N(Cc3ccccc3)C(=O)c3cccs3)ccc2n1CC(=O)O [Example 70] ... 7
CCCc1nc2cc(N(CCCOc3ccccc3)S(=O)(=O)c3ccc(F)cc3)ccc2n1CC(=O)O [Example 49] ... 47
CCCc1nc2cc(N(C3CCCCC3)S(=O)(=O)c3ccc(F)cc3)ccc2n1CC(=O)O [Example 46] ... 375
CCCc1nc2cc(N(CCOc3ccc(Cl)cc3)S(=O)(=O)c3ccc(F)cc3)ccc2n1CC(=O)O [Example 47] ... 22
CCCc1nc2cc(N(Cc3ccc(Cl)cc3)S(=O)(=O)c3ccc(F)cc3)ccc2n1CC(=O)O [Example 43] ... 51

---

pKi: −log10 of the molar value.
Entries with their measured pKi, system human CRTH2 (Homo sapiens, UniProt Q9Y5Y4):
readoutName: pKi

CC(Cc1nc2cc(NS(=O)(=O)c3ccc(F)cc3)ccc2n1CC(=O)O)CC(C)(C)C (stereo not shown) ... < 5.00
CCCc1nc2cc(N(Cc3csc(C)n3)S(=O)(=O)c3ccc(F)cc3)ccc2n1CC(=O)O ... > 6.00
CCCc1nc2cc(N(Cc3ccc(Cl)cc3)S(=O)(=O)c3ccc(F)cc3)ccc2n1CC(=O)O ... > 7.00
CC(C)Cc1nc2cc(NS(=O)(=O)c3ccc(F)cc3)ccc2n1CC(=O)O ... > 5.00

Data provenance: patent US7732618B2
